Biological target: T1, V3-46s-9 Fab
T1 construct: soluble Fab in SPR; also called V46s-9
T1 sequence (VH, as listed by the source, chain 1 of 2): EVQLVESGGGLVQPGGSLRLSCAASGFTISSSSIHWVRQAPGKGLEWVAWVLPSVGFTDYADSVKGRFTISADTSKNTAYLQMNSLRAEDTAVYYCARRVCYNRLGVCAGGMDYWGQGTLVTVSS
T1 sequence (VL, as listed by the source, chain 2 of 2): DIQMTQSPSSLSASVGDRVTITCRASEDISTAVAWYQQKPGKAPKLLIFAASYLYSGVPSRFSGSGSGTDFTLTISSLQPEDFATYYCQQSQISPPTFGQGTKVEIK
Assay: phage competition ELISA, ECD in solution (printed Phage50)
test_readout: IC50 (nM)
Give just the numeric value; nM need not be written.

Note down IC50 recorded for mouse BR3 extracellular domain (receptor, also called mBR3-ECD; mBR-ECD) MGARRLRVRSQRSRDSSVPTQCNQTECFDPLVRNCVSCELFHTPDTGHTSSLEPGTALQPQEGS
0.18
